Test system: 349418-098-R-PDC complex spheroid viability;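 also: spheroids exposed to agents for seven days before readout; 100% = DMSO vehicle control wells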
EXPERIMENTAL_DETAILS: Anticancer human tumor 349418-098-R-PDC patient-derived lung adenocarcinoma cell line growth inhibition
COND: second compound 10 µM; first compound 0.00316 µM; hits give low values
Kindly state viability, T/C for each of the entries shown.
# value in %; strip the unit string

Ask | Please list viability, T/C recorded for the compound Nc1ncn(C2CC(O)C(CO)O2)c(=O)n1 (configuration not stated) + NC1CC1c1ccc(-c2cccc(O)c2)cc1
Reply | 92.4

Ask | Please list viability, T/C recorded for the compound CC(C)CC(NC(=O)CNC(=O)c1cc(Cl)ccc1Cl)B1OC(=O)CC(CC(=O)O)(C(=O)O)O1 (configuration not stated) + NC1CCC(NC2CC2c2ccccc2)CC1
Reply | 4.32

Ask | Please list viability, T/C recorded for the compound O=C(C=Cn1cnc(-c2cc(C(F)(F)F)cc(C(F)(F)F)c2)n1)NNc1cnccn1 + NC1CCC(NC2CC2c2ccccc2)CC1
Reply | 17.9

Ask | Please list viability, T/C recorded for the compound CC(C)CC(NC(=O)C(Cc1ccccc1)NC(=O)c1cnccn1)B(O)O (configuration not stated) + NC1CCC(NC2CC2c2ccccc2)CC1
Reply | 0.77

Ask | Please list viability, T/C recorded for the compound Nc1ncn(C2CC(O)C(CO)O2)c(=O)n1 (configuration not stated) + NC1CCC(NC2CC2c2ccccc2)CC1
Reply | 80.9

Ask | Please list viability, T/C recorded for the compound CC1COCCN1c1cc(-c2ccnn2C)c2ccnc(-c3ccn[nH]3)c2n1 (configuration not stated) + NC1CCC(NC2CC2c2ccccc2)CC1
Reply | 90.7

Ask | Please list viability, T/C recorded for the compound O=C(C=Cn1cnc(-c2cc(C(F)(F)F)cc(C(F)(F)F)c2)n1)NNc1cnccn1 + NC1CC1c1ccc(-c2cccc(O)c2)cc1
Reply | 11.5
